- study_system: EGFP-IKZF (UniProt P42212+Q8C7D2, F64L/H231L/INS1V/S65T)
- Sequence (Q8C7D2 whole entry, looked up, stated change not applied, other chains not shown): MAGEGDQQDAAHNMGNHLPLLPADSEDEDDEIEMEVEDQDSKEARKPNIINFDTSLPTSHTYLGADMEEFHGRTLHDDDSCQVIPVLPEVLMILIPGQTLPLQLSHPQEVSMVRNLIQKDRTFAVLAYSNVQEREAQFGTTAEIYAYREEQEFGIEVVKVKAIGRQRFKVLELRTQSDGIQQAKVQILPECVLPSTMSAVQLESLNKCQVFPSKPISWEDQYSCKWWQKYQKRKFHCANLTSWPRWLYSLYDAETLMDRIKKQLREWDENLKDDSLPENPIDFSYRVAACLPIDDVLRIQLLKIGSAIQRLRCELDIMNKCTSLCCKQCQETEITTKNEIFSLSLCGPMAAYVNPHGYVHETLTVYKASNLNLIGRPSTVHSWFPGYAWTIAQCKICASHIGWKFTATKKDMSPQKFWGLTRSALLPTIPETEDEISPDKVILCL
- Assay type: cell-based, mouse
- cond: read-out: DC50, EGFP-IKZF; CrbnI391V/I391V mESCs, stable, Figure 5E
Parameter DC50: see the listing below.
Write it as a number; the unit nM goes unstated.

INSERT INTO results (compound, measurement_unit, recorded_result) VALUES
  ('O=C1CC[C@H](N2Cc3c(OCc4ccc(CN5CCOCC5)cc4)cccc3C2=O)C(=O)N1 [IBR, iberdomide]', 'nM', 0.639);

Task: Requested read-out: DC50. Entry: N#Cc1ccc(N2CCN(Cc3ccc(COc4cccc5c4CN([C@H]4CCC(=O)NC4=O)C5=O)cc3)CC2)c(F)c1 [MZG, mezigdomide]
Result: 0.543

Task: Which DC50 is listed for Cc1nc2cccc(N)c2c(=O)n1C1CCC(=O)NC1=O (stereo not shown) [AVA, avadomide] ?
Result: 13.5

Task: I have this compound here, Nc1cccc2c1C(=O)N(C1CCC(=O)NC1=O)C2=O (stereo not shown) [POM, pomalidomide] , and I need its recorded DC50.
Result: 5.11

----------
- study_system: EGFP-SD (Aequorea victoria, UniProt P42212, F64L/H231L/S65T)
- Type: cell-based, mouse
- cond: read-out: DC50, EGFP-SD; B6J-S1 mESCs, stable, Figure 5D
Each entry below lists one item and its recorded DC50 value.
Provide the reading as a plain figure in nM.

Worked cases, DC50 given:
INSERT INTO measurements (compound, recorded_result) VALUES
  ('Nc1cccc2c1C(=O)N(C1CCC(=O)NC1=O)C2=O (stereo not shown) [POM, pomalidomide]', 1.4),
  ('N#Cc1ccc(N2CCN(Cc3ccc(COc4cccc5c4CN([C@H]4CCC(=O)NC4=O)C5=O)cc3)CC2)c(F)c1 [MZG, mezigdomide]', 0.133),
  ('Cc1nc2cccc(N)c2c(=O)n1C1CCC(=O)NC1=O (stereo not shown) [AVA, avadomide]', 7.94);

# context switch: different compound, same DC50
Task: Hi! What's the reported DC50 for O=C1CC[C@H](N2Cc3c(OCc4ccc(CN5CCOCC5)cc4)cccc3C2=O)C(=O)N1 [IBR, iberdomide] on EGFP-SD (Aequorea victoria, UniProt P42212, F64L/H231L/S65T)?
Result: 0.264

----------
- study_system: EGFP-SD (Aequorea victoria, UniProt P42212, F64L/H231L/S65T)
- Type: cell-based, mouse
- cond: B6J-S1 mESCs, stable, Figure 5D
measurement_kind: Bottom, EGFP-SD
Number only, please.

Consider the following illustrative entries.
INSERT INTO results (compound, study_system, recorded_result) VALUES
  ('O=C1CC[C@H](N2Cc3c(OCc4ccc(CN5CCOCC5)cc4)cccc3C2=O)C(=O)N1 [IBR, iberdomide]', 'EGFP-SD (Aequorea victoria, UniProt P42212, F64L/H231L/S65T)', 0.02363),
  ('N#Cc1ccc(N2CCN(Cc3ccc(COc4cccc5c4CN([C@H]4CCC(=O)NC4=O)C5=O)cc3)CC2)c(F)c1 [MZG, mezigdomide]', 'EGFP-SD (Aequorea victoria, UniProt P42212, F64L/H231L/S65T)', 0.0126),
  ('Nc1cccc2c1C(=O)N(C1CCC(=O)NC1=O)C2=O (stereo not shown) [POM, pomalidomide]', 'EGFP-SD (Aequorea victoria, UniProt P42212, F64L/H231L/S65T)', 0.01974);

Next:
Task: Recorded Bottom, EGFP-SD for Cc1nc2cccc(N)c2c(=O)n1C1CCC(=O)NC1=O (stereo not shown) [AVA, avadomide] with EGFP-SD (Aequorea victoria, UniProt P42212, F64L/H231L/S65T), please?
Result: 0.01996

----------
- study_system: EGFP-SD (Aequorea victoria, UniProt P42212, F64L/H231L/S65T)
- Assay type: cell-based, mouse
- cond: CrbnI391V/I391V mESCs, stable, Figure 5E
compounds and their reported LogDC50, EGFP-SD
Number first, unit second: that is the form wanted.

Consider the worked cases shown below.
INSERT INTO measurements (compound, recorded_result) VALUES
  ('Cc1nc2cccc(N)c2c(=O)n1C1CCC(=O)NC1=O (stereo not shown) [AVA, avadomide]', '-2.187 μM'),
  ('O=C1CC[C@H](N2Cc3c(OCc4ccc(CN5CCOCC5)cc4)cccc3C2=O)C(=O)N1 [IBR, iberdomide]', '-4.174 μM'),
  ('Nc1cccc2c1C(=O)N(C1CCC(=O)NC1=O)C2=O (stereo not shown) [POM, pomalidomide]', '-2.993 μM');

Task: Query: LogDC50, EGFP-SD; subject: N#Cc1ccc(N2CCN(Cc3ccc(COc4cccc5c4CN([C@H]4CCC(=O)NC4=O)C5=O)cc3)CC2)c(F)c1 [MZG, mezigdomide]
Result: -4.187 μM
